test system: MDA-MB-231 cells; assay: MTT cell viability assay, MDA-MB-231; assay type: cell-based; conditions: Homo sapiens, MDA-MB-231, 48 h, read-out: Cell growth % at 10 µM, MDA-MB-231
Exercise: state measured viability at 10 µM for each of the compounds provided.
Give bare numbers, in %.

Worked cases, viability at 10 µM given:
compound: C=CC[Se]C(=O)c1cccs1 [Compound 9a, Se-allyl thiophene-2-carboselenoate]
viability at 10 µM, %: 89.4
--
compound: C=CC[Se]C(=O)C(C)c1ccc2cc(OC)ccc2c1 (stereo not drawn) [Compound 16a]
viability at 10 µM, %: 33.8
--
compound: C#CC[Se]C(=O)[C@@H](C)c1ccc2cc(OC)ccc2c1 [Compound 16b]
viability at 10 µM, %: 29.8
--
compound: C#CC[Se]C(=O)/C=C/c1ccccc1
viability at 10 µM, %: 64.8
--
compound: C#CC[Se]C(=O)CCc1ccccc1 [Compound 6b, Se-prop-2-ynyl 3-phenylpropaneselenoate]
viability at 10 µM, %: 78.9
--
compound: C#CC[Se]C(=O)C(C)c1ccc(CC(C)C)cc1 (stereo not drawn) [Compound 15b]
viability at 10 µM, %: 59.7

Give me viability at 10 µM for each of these compounds, listed below.
1. C=CC[Se]C(=O)c1ccccc1Cl [Compound 3a, Se-allyl 2-chlorobenzoselenoate]
2. C=CC[Se]C(=O)CCc1ccccc1 [Compound 6a, Se-allyl 3-phenylpropaneselenoate]
3. C#CC[Se]C(=O)c1cccnc1Cl

[29.7, 35.9, 92.9]
